- Target system: Caspase-1 (Homo sapiens);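 also: Caspase-1 enzyme inhibition assay with a peptide substrate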; also: in other assays of this panel Not Active means under 50% inhibition at 10 µM
- Sequence (P29466 120-297 limits assumed): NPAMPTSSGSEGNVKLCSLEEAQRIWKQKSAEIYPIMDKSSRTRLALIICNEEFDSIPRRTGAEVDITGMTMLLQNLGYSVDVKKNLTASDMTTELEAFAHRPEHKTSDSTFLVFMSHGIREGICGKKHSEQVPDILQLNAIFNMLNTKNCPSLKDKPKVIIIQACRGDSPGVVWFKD
- Sequence (P29466 317-404 limits assumed): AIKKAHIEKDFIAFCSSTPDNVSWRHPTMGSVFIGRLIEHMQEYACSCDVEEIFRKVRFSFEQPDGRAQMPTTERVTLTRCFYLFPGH
- Parameters: species or system Escherichia coli
- Details: read-out: IC50
Recorded endpoint: pIC50
Scale for pIC50: -log10 of concentration given in mol/L; no unit attached.

Item COc1cccc2c1C(=O)c1c(O)c3c(c(O)c1C2=O)C[C@@](O)(C(=O)CO)C[C@@H]3O[C@H]1C[C@H](N)[C@H](O)[C@H](C)O1 ; assay system Caspase-1 (Homo sapiens); pIC50 reported as 4.91

====

- Target system: Estrogen receptor beta (Homo sapiens, UniProt Q92731); also: in other assays of this panel Not Active means under 50% inhibition at 10 µM
- Sequence (Q92731 whole entry): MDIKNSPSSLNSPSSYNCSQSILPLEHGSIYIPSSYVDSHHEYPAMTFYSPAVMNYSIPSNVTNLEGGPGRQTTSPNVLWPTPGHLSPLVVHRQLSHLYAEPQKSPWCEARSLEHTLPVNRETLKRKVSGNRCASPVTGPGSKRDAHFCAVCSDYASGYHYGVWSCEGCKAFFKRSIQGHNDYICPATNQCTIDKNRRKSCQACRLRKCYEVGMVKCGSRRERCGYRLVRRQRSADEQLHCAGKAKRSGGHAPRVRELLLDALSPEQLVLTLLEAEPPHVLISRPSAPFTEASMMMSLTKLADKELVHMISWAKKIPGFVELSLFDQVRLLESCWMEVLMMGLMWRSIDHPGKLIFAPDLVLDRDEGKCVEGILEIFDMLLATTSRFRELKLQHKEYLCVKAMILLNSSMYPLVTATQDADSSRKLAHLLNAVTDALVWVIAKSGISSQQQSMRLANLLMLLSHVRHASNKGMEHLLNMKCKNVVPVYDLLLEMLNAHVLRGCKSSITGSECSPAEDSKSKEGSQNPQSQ
- Details: sf9
Recorded endpoint: IC50

Compound	IC50
C[C@H]1O[C@@H](O[C@H]2[C@@H](O)C[C@H](O[C@H]3[C@@H](O)C[C@H](O[C@H]4CC[C@@]5(C)[C@H](CC[C@@H]6[C@@H]5CC[C@]5(C)[C@@H](C7=CC(=O)OC7)CC[C@]65O)C4)O[C@@H]3C)O[C@@H]2C)C[C@H](O)[C@@H]1O [DIGITOXIN]	Not Active
CCOC(=O)C(C)(C)Oc1ccc(Cl)cc1 [CLOFIBRATE]	Not Active
CC(C)CC(N(C)C)C1(c2ccc(Cl)cc2)CCC1 (configuration not stated) [SIBUTRAMINE]	Not Active
CC(C)C[C@H](NC(=O)[C@@H](O)[C@H](N)Cc1ccccc1)C(=O)O [UBENIMEX]	Not Active
CC(C)NCC(O)COc1cccc2ccccc12 (configuration not stated) [PROPRANOLOL]	Not Active

Item C[C@@H](N)[C@H]1CC[C@H](C(=O)Nc2ccncc2)CC1 [Y-27632] ; assay system Estrogen receptor beta (Homo sapiens, UniProt Q92731); IC50 reported as Not Active

Item CCN[C@@H]1C[C@H](N)[C@@H](O[C@H]2OC(CN)=CC[C@H]2N)[C@H](O)[C@H]1O[C@H]1OC[C@](C)(O)[C@H](NC)[C@H]1O [NETILMICIN] ; assay system Estrogen receptor beta (Homo sapiens, UniProt Q92731); IC50 reported as Not Active
